# system: recombinant human Jak3 (aa811-1124) (Homo sapiens (Human), UniProt P52333)
# Sequence (P52333 811-1124): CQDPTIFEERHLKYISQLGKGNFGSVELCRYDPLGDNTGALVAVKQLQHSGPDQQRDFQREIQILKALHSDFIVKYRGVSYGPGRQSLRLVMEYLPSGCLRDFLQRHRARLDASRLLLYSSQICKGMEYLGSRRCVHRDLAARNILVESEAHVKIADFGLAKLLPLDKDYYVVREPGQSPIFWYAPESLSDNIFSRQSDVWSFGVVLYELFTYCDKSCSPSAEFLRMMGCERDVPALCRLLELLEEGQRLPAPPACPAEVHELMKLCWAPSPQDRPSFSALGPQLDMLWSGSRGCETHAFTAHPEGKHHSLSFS
# Assay type: biochemical
Measured IC50 accompanies every entry in the list below.
Express the result in µM but write the number alone.

The reported value for CS(=O)(=O)NCc1nc2cnc3[nH]ccc3c2n1[C@@H]1C[C@H]2CC[C@@H]1C2 [reference compound] in terms of IC50 is 0.95

The reported value for N#Cc1ccc(COc2ccc(-c3cccc4nc(NC(=O)C5CC5)nn34)cc2)cn1 [reference compound] in terms of IC50 is 0.38

====

# Test system: Tenomodulin (Tnmd) gene expression in rat tail tendon fascicles
# test-name: Ex vivo assay, Tnmd mRNA in tendon fascicles (qPCR)
# Type: cell-based, Sprague Dawley rat
# condition-notes: 96 h, Table 3, four days, read-out: Ex vivo Tnmd (EC50 μM)
measured-endpoint: EC50 (µM)
Express the result in µM but write the number alone.

Here is how some compounds turned out for EC50.
Cc1cc(S(=O)(=O)N[C@H]2C[C@@H](O)C2)ccc1-c1ccc2[nH]nc(N)c2c1C    10
Cc1cc(S(=O)(=O)N2CCC(O)CC2)ccc1-c1ccc2[nH]nc(N)c2c1C    6.97
COc1c(-c2ccc(S(=O)(=O)N[C@@H]3CCC[C@@H]3O)cc2C)ccc2[nH]nc(N)c12    6.51
Cc1cc(S(=O)(=O)NC2CCC(F)(F)CC2)ccc1-c1ccc2[nH]nc(N)c2c1C    4.87
Cc1cc(S(=O)(=O)N2CC[C@H](O)C2)ccc1-c1ccc2[nH]nc(N)c2c1C    1.6

The reported value for Cc1cc(S(=O)(=O)N[C@H]2C[C@](O)(C(F)(F)F)C2)ccc1-c1ccc2[nH]nc(N)c2c1C in terms of EC50 is 3.77

The reported value for Cc1cc(S(=O)(=O)NC2CCOCC2)ccc1-c1ccc2[nH]nc(N)c2c1C in terms of EC50 is 6.64

The reported value for Cc1cc(S(=O)(=O)N2CCC[C@H]2CO)ccc1-c1ccc2[nH]nc(N)c2c1C in terms of EC50 is 10

The reported value for Cc1cc(S(=O)(=O)N[C@H]2C[C@@](C)(O)C2)ccc1-c1ccc2[nH]nc(N)c2c1C in terms of EC50 is 2.92

====

# Test system: Scleraxis (Scx) gene transcriptional activation in TT-D6 Scx-luciferase (ScxL) cell line
# test-name: SCX-LUC in vitro assay (Scx-luciferase reporter)
# Type: cell-based
# condition-notes: Mus musculus, 96 h; Table 3; four days; read-out: Scx-Luc (EC50 μM)
Measured log10 EC50 accompanies every entry in the list below.
Short version: log10 scale, EC50, µM.

Here is how some compounds turned out for log10 EC50.
Cc1cc(S(=O)(=O)NC2CC(F)(F)C2)ccc1-c1ccc2[nH]nc(N)c2c1C [Example 24]    -0.44
Cc1cc(S(=O)(=O)NC2CC(O)(C3CC3)C2)ccc1-c1ccc2[nH]nc(N)c2c1C (stereo not shown) [Example 50]    0.11
Nc1n[nH]c2ccc(-c3ccc(S(=O)(=O)N[C@H]4C[C@](O)(C(F)(F)F)C4)cc3Cl)c(Cl)c12 [Example 64]    -0.32
Nc1n[nH]c2ccc(-c3ccc(S(=O)(=O)N[C@@H]4CCC[C@@H]4O)cc3Cl)c(F)c12 [Example 76]    -0.77
Cc1cc(S(=O)(=O)N2CCC[C@H]2CO)ccc1-c1ccc2[nH]nc(N)c2c1Cl [Example 28]    -0.36
Cc1cc(S(=O)(=O)N[C@@H]2CCCC[C@@H]2O)ccc1-c1ccc2[nH]nc(N)c2c1C [Example 17]    0.68
CCC1(O)CC(NS(=O)(=O)c2ccc(-c3ccc4[nH]nc(N)c4c3C)c(C)c2)C1 (stereo not shown) [Example 49]    -0.07
Cc1cc(S(=O)(=O)N2CC(F)(F)C[C@H]2CO)ccc1-c1ccc2[nH]nc(N)c2c1F [Example 44]    0.08

Reported log10 EC50 (Scleraxis (Scx) gene transcriptional activation in TT-D6 Scx-luciferase (ScxL) cell line) for entry Cc1cc(S(=O)(=O)NC2CC(F)(F)C2)ccc1-c1ccc2[nH]nc(N)c2c1Cl [Example 66] is 0.03

Reported log10 EC50 (Scleraxis (Scx) gene transcriptional activation in TT-D6 Scx-luciferase (ScxL) cell line) for entry Cc1cc(S(=O)(=O)N2CC(F)(F)C[C@H]2CO)ccc1-c1ccc2[nH]nc(N)c2c1C [Example 32] is -0.29

Reported log10 EC50 (Scleraxis (Scx) gene transcriptional activation in TT-D6 Scx-luciferase (ScxL) cell line) for entry Cc1c(-c2ccc(S(=O)(=O)N3CC[C@@H](O)C3)cc2Cl)ccc2[nH]nc(N)c12 [Example 2] is -0.04

Reported log10 EC50 (Scleraxis (Scx) gene transcriptional activation in TT-D6 Scx-luciferase (ScxL) cell line) for entry Cc1cc(S(=O)(=O)N[C@@H]2CCC[C@@H]2O)ccc1-c1ccc2[nH]nc(N)c2c1C [Example 18] is -0.33

Reported log10 EC50 (Scleraxis (Scx) gene transcriptional activation in TT-D6 Scx-luciferase (ScxL) cell line) for entry Cc1c(-c2ccc(S(=O)(=O)NC3CC(F)(F)C3)cc2Cl)ccc2[nH]nc(N)c12 [Example 68] is 0.27
